From: patent US20250281406A1

Give Particle Size in nm for every item shown.
experimental.protocol: Particle size and polydispersity index of lipid nanoparticles by dynamic light scattering
Format: physicochemical
assay.conditions: MO nanoparticles with amino lipid at RMO 0.1, Pluronic F-127, 25° C., mean ± SD n=3

Record excerpt, results attached:
compound	Particle Size in nm
CCCCCCCC/C=C\CCCCCCCC(=O)NCc1ccccn1 [Lipid-11]	255 ± 4 nm
CCCCCCCC/C=C\CCCCCCCC(=O)NCCN1CCCCC1 [Lipid-13, N-(2-(piperidin-1-yl)ethyl)oleamide]	176 ± 4 nm
CCCCCCCC/C=C\CCCCCCCC(=O)NCc1ccncc1 [Lipid-10, N-(pyridine-4-ylmethyl)oleamide]	224 ± 3 nm

# input for lookup
The recorded Particle Size in nm for entry CCCCCCCC/C=C\CCCCCCCC(=O)NCCN1CCOCC1 [Lipid-12] equals 218 ± 3 nm

====

experimental.protocol: Particle size and polydispersity index of lipid nanoparticles by dynamic light scattering
Format: physicochemical
assay.conditions: MO nanoparticles with amino lipid at RMO 0.5, Pluronic F-127, 25° C., mean ± SD n=3
Give Particle Size in nm for every item shown.
Answers are plain numbers, in nm.

compound	Particle Size in nm [nm]
CCCCCCCC/C=C\CCCCCCCC(=O)NCCN1CCCCC1 [Lipid-13, N-(2-(piperidin-1-yl)ethyl)oleamide]	209
CCCCCCCC/C=C\CCCCCCCC(=O)NCc1ccncc1 [Lipid-10, N-(pyridine-4-ylmethyl)oleamide]	265
CCCCCCCC/C=C\CCCCCCCC(=O)NCCN1CCOCC1	137

# input for lookup
The recorded Particle Size in nm for entry CCCCCCCC/C=C\CCCCCCCC(=O)NCc1ccccn1 equals 300

====

Give Particle Size in nm for every item shown.
experimental.protocol: Particle size and polydispersity index of lipid nanoparticles by dynamic light scattering
Type: physicochemical
assay.conditions: MO nanoparticles with amino lipid at RMO 0.15, Pluronic F-127, 25° C., mean ± SD n=3
One number for each entry, in nm.

compound	observed
CCCCCCCC/C=C\CCCCCCCC(=O)NCc1ccccn1 [Lipid-11]	300

Report Particle Size in nm for each item below.
1. CCCCCCCC/C=C\CCCCCCCC(=O)NCc1ccncc1 [Lipid-10, N-(pyridine-4-ylmethyl)oleamide]
2. CCCCCCCC/C=C\CCCCCCCC(=O)NCCN1CCCCC1 [Lipid-13, N-(2-(piperidin-1-yl)ethyl)oleamide]
3. CCCCCCCC/C=C\CCCCCCCC(=O)NCCN1CCOCC1 [Lipid-12]

Out:
259
168
239

====

experimental.protocol: Particle size and polydispersity index of lipid nanoparticles by dynamic light scattering
Format: physicochemical
assay.conditions: MO nanoparticles with amino lipid at RMO 0.2, Pluronic F-127, 25° C., mean ± SD n=3
Give Particle Size in nm for every item shown.
Numbers only, in nm.

Record excerpt, results attached:
molecule	value.units	Particle Size in nm
CCCCCCCC/C=C\CCCCCCCC(=O)NCc1ccccn1	nm	267
CCCCCCCC/C=C\CCCCCCCC(=O)NCCN1CCCCC1 [Lipid-13, N-(2-(piperidin-1-yl)ethyl)oleamide]	nm	185
CCCCCCCC/C=C\CCCCCCCC(=O)NCc1ccncc1 [Lipid-10, N-(pyridine-4-ylmethyl)oleamide]	nm	271

# input for lookup
The recorded Particle Size in nm for entry CCCCCCCC/C=C\CCCCCCCC(=O)NCCN1CCOCC1 equals 250
